Molecule: O=C(Nc1c[nH]nc1C(=O)NCCNc1ccccc1)c1ccccn1
melting point: 184 to 186 °C
//
Molecule: CC(=O)N1CCC(=O)C(C(c2ccc(F)cc2)c2ccc(F)cc2)C1 (stereo not given)
melting point: 146 to 147 °C
//
Molecule: Cc1c(C(=O)O)cnn1-c1ccc(OC(F)(F)F)cc1
melting point: 176 to 178 °C
//
Molecule: COc1ccc(-n2nc(CC(C(=O)N(C)O)c3ccc(Cl)cc3)cc2-c2ccc(Cl)cc2)cc1 (stereo not given)
melting point: 113 to 117 °C
//
Molecule: O=C1N=NC(=O)c2c1[nH]c1c(Cl)cccc21
melting point: > 250 °C
//
Molecule: Fc1ccc2[nH]cc([C@H]3CC[C@H](NCc4ccccc4)CC3)c2c1
melting point: 131 to 133 °C
//
Molecule: COC(=O)C1=C(C)NC(C)=C(C(=O)OCCCCCCOc2cc(-c3ccccc3)[nH]n2)C1c1cccc([N+](=O)[O-])c1 (stereo not given)
melting point: 151 to 153 °C
//
Molecule: O=C(Nc1ccc2cn[nH]c2c1)C(=O)N1CCC(Cc2ccc(F)cc2)CC1
melting point: 162 to 164 °C
//
Molecule: CCOC(=O)CN1Cc2c(C)cccc2NC1=O
melting point: 184 to 185 °C
//
Molecule: CC(C)Oc1cc(NC(=O)C2=C(C(=O)N(C)C)CCCC2)ccc1Br
melting point: 137 to 138 °C
//
Molecule: O=C(O)Cn1cc(Cc2nc3c(F)c(F)cc(F)c3s2)c2cc(Oc3ccccc3)ccc21
melting point: 128 to 130 °C
//
Molecule: N#Cc1cc(C(F)(F)F)cc(Br)c1-c1nc(C(F)(F)C(F)(F)F)c(Br)c(=O)[nH]1
melting point: 156 °C
//
Molecule: O=C(O)Cc1ccc(Br)cc1C(=O)O
melting point: 210 to 213 °C
//
Molecule: O=c1ccnc(NCCN(Cc2ccccc2)c2ccccn2)[nH]1
melting point: 187 to 190 °C
//
Molecule: CC(=O)c1ccc(Cl)c2c1OC(F)(F)O2
melting point: 40 °C
//
Molecule: O=C(CCCl)c1ccc2c(c1)CCC2
melting point: 63.5 to 65.1 °C
//
Molecule: CC(C)(CCCCC(=O)CCCCC1(C(=O)O)CCC1)C(=O)O
melting point: 53 to 55 °C
//
Molecule: CCCCN(C)C(=O)CSCCCCCOc1ccc(C2=C(c3ccccc3)CCCc3cc(O)ccc32)cc1
melting point: 112 to 114 °C
//
Molecule: COC(=O)c1ccc(OC)c2c(C(F)(F)F)c(OC)ccc12
melting point: 120 to 123 °C
//
Molecule: CCN(CC)C(C)CN1c2cc(Cl)ccc2S[C@H]2[C@@H](O)[C@H](O)[C@@H](CO)O[C@H]21 (stereo not given in full)
melting point: 185 to 188 °C

###

# reported melting point; entries follow

Compound: CCc1cc(C(=O)C(c2ccc(O)cc2)c2ccc(O)cc2)cc(C(C)(c2ccc(O)cc2)c2ccc(O)cc2)c1
melting point: 144 to 146 °C
--
Compound: O=C(Nc1c[nH]nc1C(=O)NCCOc1ccccc1)c1ccccn1
melting point: 182 to 183 °C
--
Compound: CC(C)(C)OC(=O)NCCCCn1c(-c2ccccc2)nc2c(N)nc3ccccc3c21
melting point: 182 to 183 °C
--
Compound: COc1ccc(C(C#Cc2ccccc2)CC(N)=O)cc1OC1CCCC1 (racemic)
melting point: 142 to 144 °C
--
Compound: COc1c(Cl)cc(NC(=O)OCCCl)c(OC)c1NC(=O)OCCCl
melting point: 87 °C
--
Compound: CCCC(=O)c1cnc2cc(COC(=O)c3ccccc3)ccc2c1Nc1ccccc1C
melting point: 110 to 112 °C
--
Compound: Cc1csc2[nH]cc(C(=O)c3ccc(Cl)cc3)c12
melting point: 223 °C
--
Compound: CCn1c(=O)c2c(nc(/C=C/c3ccc(F)c(Br)c3)n2C)n(CC)c1=O
melting point: 218 to 219 °C
--
Compound: C#CCc1c(-c2ccccc2)nc(C)n(C)c1=O
melting point: 142 to 144 °C

###

Quantity name: melting point

Molecule: CC(=O)Nc1ccc2[nH]c(C=CC(=O)O)cc2c1
Test result: 238 to 239 °C

Molecule: COc1ccccc1CCC1CNC(=O)O1 (stereo not given)
Test result: 76 to 77 °C

Molecule: CCCCn1nc(SCc2ccc(OC)cc2)c(C(=O)O)c1Cc1cc2c(cc1Cl)OCO2
Test result: 181 °C

Molecule: Cc1c(C)c2c(c(C)c1O)CCC(C)(CNCCc1ccc(N=C(N)c3cccs3)cc1)O2 (stereo not given)
Test result: > 230 °C

Molecule: COC(=O)C(=CC(c1ccccc1)c1ccccc1)C(=O)OC
Test result: 120 to 122 °C

###

# reported melting point; entries follow

Compound: C#CCN(CC#C)c1ccc(Cl)c(Cl)c1
melting point: 48 to 50 °C
--
Compound: COC(CCC(C)C1CCC2C3C(OC(C)=O)CC4CC(OC(C)=O)CCC4(C)C3CC(=O)C12C)=NNS(=O)(=O)c1ccc(C)cc1 (stereo unspecified)
melting point: 146 to 147 °C
--
Compound: O=C(O)c1ccc(CCCBr)cc1
melting point: 120 °C
--
Compound: CCN(CC)CCn1c2ccccc2c(=NNC(N)=S)c2ccccc21
melting point: 154 to 156 °C
--
Compound: O=C(Nc1ccc(N2CCCCC2)cc1)N(C[C@H]1CC[C@H](CN(C(=O)Nc2ccc(N3CCCCC3)cc2)C2CCCCCC2)CC1)C1CCCCCC1
melting point: 175 to 178 °C
--
Compound: CC1CN(c2c(F)cc3c(=O)c(C(=O)O)cn(CCF)c3c2F)CC1CN (stereo unspecified)
melting point: 228 to 232 °C
--
Compound: CCC(C)(C)NC(Nc1ccc2c(c1)OCO2)=C(C#N)C(=O)C(C)(C)C
melting point: 161 to 165 °C
--
Compound: COC(=O)c1sc2ccc([N+](=O)[O-])cc2c1N
melting point: 208 to 210 °C
--
Compound: COCC(=O)OCc1c(C)n(Cc2ccccc2)c2c(OCc3ccc(F)cc3)nncc12
melting point: 119 to 121 °C
--
Compound: CC(C)n1cnc2c(NCc3cc(O)ccc3O)nc(NC[C@@H](C)O)nc21
melting point: 162 to 164 °C
--
Compound: O=C(O)c1ccc(COCc2csc3nc(C(=O)NCc4cccc(Cl)c4)[nH]c(=O)c23)cc1
melting point: 236 to 238 °C
--
Compound: COc1ccc(C2(OC)OC2(C)C)cc1 (stereo unspecified)
melting point: 41 to 43 °C
--
Compound: NC(=O)Cn1ccc2ccccc21
melting point: 177 to 179 °C
--
Compound: CC(C)=Cc1cn(-c2c(Cl)cc(C(F)(F)F)cc2Cl)nc1C#N
melting point: 72 to 74 °C
--
Compound: CS(=O)(=O)Nc1ccc(C(O)CN2CCCCCC2)cc1 (stereo unspecified)
melting point: 120 to 122 °C
--
Compound: CC(Oc1ccc(C(=O)c2ccc(O)cc2)c(Cl)c1Cl)C(=O)O (stereo unspecified)
melting point: 208 to 212 °C
--
Compound: CCCNS(=O)(=O)c1cc(C(=O)CCC(=O)O)ccc1Cl
melting point: 106 °C
--
Compound: COc1ccccc1-c1c(CC(=O)O)n(C)c2ccc(Cl)cc12
melting point: 153 to 154 °C
--
Compound: CN1CCN(c2c(F)cc3c(=O)c(C(=O)O)cn(-c4ccc(O)cc4)c3c2F)CC1
melting point: > 300 °C
--
Compound: COc1ccc(-c2csc(Nc3cc(OC)ccc3OC)n2)cc1
melting point: 104 °C
--
Compound: Cc1cc2c(cc1O)C(C)(C)CC1(CC(C)(C)c3cc(OCCCn4nc(CO)cc4C)c(C)cc3O1)O2 (stereo unspecified)
melting point: 217 to 219 °C
--
Compound: CCN(CC)CC#CCCC(=O)C(O)(c1ccccc1)C1CCCC1 (stereo unspecified)
melting point: 128 to 129 °C
--
Compound: COc1cc2[nH]c(C)c(CCN3CCN(NC(=O)c4ccc(F)cc4)CC3)c2cc1OC
melting point: 116 to 119 °C
--
Compound: CC1CCc2c3c(cc4ccccc24)C(=O)C(C(=O)O)CN31 (stereo unspecified)
melting point: 270 to 273 °C
--
Compound: Nc1nc(OS(=O)(=O)Cl)nn1C(=O)Oc1ccccc1
melting point: 164 °C
--
Compound: Cc1nc2c3c(ccc2n1C)[C@@H](OCC(F)F)[C@H](O)[C@@H](c1ccccc1)O3
melting point: 249 °C
--
Compound: CC(C)n1nc(C(=O)C(=O)c2ccccc2)ccc1=O
melting point: 71 to 73 °C
--
Compound: NC(=O)c1ccccc1Nc1ccncc1
melting point: 206 to 209 °C
--
Compound: Cc1cccc(C2=CCN(c3ccc(F)nn3)CC2)c1
melting point: 105 °C
--
Compound: Cc1ccc(C(=O)CCc2ccc(N3CCN(c4ccncc4)CC3)cc2)cc1
melting point: 114 to 115 °C
--
Compound: COc1ccc2c(cc(C)n2-c2ncnc3cc(Cl)ccc23)c1CC(=O)O
melting point: 110 to 112 °C
--
Compound: CC(C)(O)c1nnc2ccc(-c3c(-c4ccc(F)cc4F)nc4n3CCC4)nn12
melting point: 222 to 223 °C
--
Compound: CCc1nc2c(N)nc3cc(/C=C/C(=O)N(C)C)ccc3c2n1CC1CCOCC1
melting point: > 260 °C
--
Compound: Cc1ccc(C=COc2cccc3c2C(=O)c2ccccc2C3=O)cc1
melting point: 88 to 90 °C
--
Compound: Cn1c2ccccc2c2sc3c(C=O)cccc3c21
melting point: 128 to 130 °C
--
Compound: Cc1ccc(C(=O)c2ccc(CC#N)n2C)s1
melting point: 118 to 121 °C
--
Compound: COc1ccc(Cl)cc1C(=O)NCCc1ccc(C(C)=CCC(=O)O)cc1
melting point: 180 to 183 °C
--
Compound: O=C1C=C(c2cccc(C(F)(F)F)c2)CO1
melting point: 124 to 125 °C
--
Compound: O=C(O)/C(=C/c1cnc(CCc2ccccc2)n1Cc1ccc(C(=O)O)cc1)Cc1cccs1
melting point: 214 °C
--
Compound: CC(=O)c1cccc(Oc2cccc(Cl)n2)c1
melting point: 82 to 83 °C
--
Compound: N#Cc1cccc(-n2c(=O)c(CCCc3ccncc3)cc3cccnc32)c1
melting point: 202 to 204 °C

Reference source for all entries: a melting point compilation (Tetko et al.; mined from patent text by program, amines drawn as free bases though some values may be those of a salt)
